- target-or-test-system: UniProt:P45452
- test-method-notes: MMP13 inhibition (Table 1)
- Format: biochemical
- study-conditions: @ 5 μM; read-out: percentage inhibition MMP13
observable: inhibition at 5 µM (%)

{"compound": "O=CN(O)C(CCc1ccccc1)CS(=O)(=O)N1CCc2ccccc2C1 (centres unmarked)", "target-or-test-system": "UniProt:P45452", "inhibition at 5 µM [%]": 97}
{"compound": "O=CN(O)C(CS(=O)(=O)N1CCc2ccccc2C1)c1cccnc1 (centres unmarked)", "target-or-test-system": "UniProt:P45452", "inhibition at 5 µM [%]": 93}
{"compound": "CC1(C)OC[C@H](C(CS(=O)(=O)N2CCc3ccccc3C2)N(O)C=O)O1 (some centres unmarked)", "target-or-test-system": "UniProt:P45452", "inhibition at 5 µM [%]": 98}

a: CCCCCC(CS(=O)(=O)N1CCc2ccccc2C1)N(O)C=O (centres unmarked)
b: COc1cc2c(cc1OC)CN(S(=O)(=O)CC([C@H]1COC(C)(C)O1)N(O)C=O)CC2 (some centres unmarked)
// compare measured inhibition at 5 µM between a and b ; output the lower one // output: label of the selected item
b
